# tested_system: human Esterase Plasma (ES), BCHE (gene 590)
# experimental_details: NVS_ENZ_hES: NovaScreen (NVS) Enzymatic Assay for human Esterase Plasma (ES) (AID 2283157)
Inconclusive results are not listed. Calls of active or inactive are those of the source. Rule for the calls: active = hit-call score of the fitted dose curve at least 0.9, where 1 is the maximum; inconclusive = response in the unintended direction; inactive = score below 0.9.
Classes used: true for active, false for inactive

[[record]]
test_smiles = "Nc1ccc(N)cc1"
tested_system = "human Esterase Plasma (ES), BCHE (gene 590)"
class_label = "false"

[[record]]
test_smiles = "CCOC(=O)CCN(SN(C)C(=O)Oc1cccc2c1OC(C)(C)C2)C(C)C"
tested_system = "human Esterase Plasma (ES), BCHE (gene 590)"
class_label = "true"

[[record]]
test_smiles = "CCOP(=O)(OCC)OC(=CCl)c1ccc(Cl)cc1Cl"
tested_system = "human Esterase Plasma (ES), BCHE (gene 590)"
class_label = "true"

[[record]]
test_smiles = "CCOP(=S)(OCC)OP(=S)(OCC)OCC"
tested_system = "human Esterase Plasma (ES), BCHE (gene 590)"
class_label = "true"


###

# tested_system: Estrogen receptor (Homo sapiens) + Estrogen receptor beta (Homo sapiens) (UniProt P03372+Q92731)
# Sequence (P03372 whole entry, looked up, the tested form may be a part): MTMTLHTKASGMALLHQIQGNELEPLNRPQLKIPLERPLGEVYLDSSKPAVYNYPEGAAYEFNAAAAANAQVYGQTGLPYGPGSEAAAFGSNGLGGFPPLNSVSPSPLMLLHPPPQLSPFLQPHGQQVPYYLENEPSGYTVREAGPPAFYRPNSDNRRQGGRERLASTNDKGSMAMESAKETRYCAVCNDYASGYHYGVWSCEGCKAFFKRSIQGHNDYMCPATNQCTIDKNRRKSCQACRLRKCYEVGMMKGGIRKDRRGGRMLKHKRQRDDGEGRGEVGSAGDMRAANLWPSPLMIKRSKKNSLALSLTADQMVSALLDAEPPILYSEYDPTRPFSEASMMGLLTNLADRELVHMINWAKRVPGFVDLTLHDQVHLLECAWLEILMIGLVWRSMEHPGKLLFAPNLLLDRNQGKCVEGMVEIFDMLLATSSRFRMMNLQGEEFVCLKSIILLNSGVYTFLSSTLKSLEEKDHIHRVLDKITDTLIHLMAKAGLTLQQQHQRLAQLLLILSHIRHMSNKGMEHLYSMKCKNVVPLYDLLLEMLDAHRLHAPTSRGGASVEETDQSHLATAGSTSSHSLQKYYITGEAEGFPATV
# Sequence (Q92731 whole entry, looked up, the tested form may be a part): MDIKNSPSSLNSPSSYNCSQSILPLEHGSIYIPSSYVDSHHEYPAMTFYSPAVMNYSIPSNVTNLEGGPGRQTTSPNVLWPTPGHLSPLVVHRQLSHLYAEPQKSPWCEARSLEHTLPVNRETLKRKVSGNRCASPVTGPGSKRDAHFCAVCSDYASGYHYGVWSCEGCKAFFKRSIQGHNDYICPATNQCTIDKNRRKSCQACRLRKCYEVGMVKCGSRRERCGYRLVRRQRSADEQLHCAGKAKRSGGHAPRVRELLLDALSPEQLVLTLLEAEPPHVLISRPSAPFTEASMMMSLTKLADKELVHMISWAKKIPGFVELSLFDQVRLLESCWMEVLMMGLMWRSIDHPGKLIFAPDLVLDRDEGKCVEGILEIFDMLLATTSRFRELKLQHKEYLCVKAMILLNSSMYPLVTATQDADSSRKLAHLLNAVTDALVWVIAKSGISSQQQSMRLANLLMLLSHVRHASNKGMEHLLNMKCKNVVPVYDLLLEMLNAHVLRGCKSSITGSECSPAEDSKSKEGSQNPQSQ
# experimental_details: OT_ER_ERaERb_1440: Odyssey Thera (OT) 24-hour HEK293T Protein-Complementation Assay for Estrogen Receptor-alpha/-beta Homodimer (AID 2283356);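 note: heteromer of ER alpha and ER beta binding domains; hits raise reporter fluorescence and both agonists and antagonists give an increase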
Inconclusive results are not listed. Calls of active or inactive are those of the source. How the source made its calls: active means hit-call score of the fitted dose curve at least 0.9, where 1 is the maximum; inconclusive means response in the unintended direction; inactive means score below 0.9.
Classes used: active, inactive

[[record]]
compound = "CC(C)N(C(=O)CCl)c1ccccc1"
class_label = "inactive"

[[record]]
compound = "CCN(CCO)CCO"
class_label = "inactive"

[[record]]
compound = "O=C(O)COc1ccc(Cl)cc1"
class_label = "inactive"

[[record]]
compound = "N#CCC#N"
class_label = "inactive"

[[record]]
compound = "CCOc1ccc(N)cc1"
class_label = "inactive"

[[record]]
compound = "O=S1(=O)OC(c2cc(Br)c(O)c(Br)c2)(c2cc(Br)c(O)c(Br)c2)c2ccccc21"
class_label = "inactive"

[[record]]
compound = "Cc1cc(Cl)ccc1OC(C)C(=O)O (stereo not given)"
class_label = "inactive"

[[record]]
compound = "CCOCn1c(-c2ccc(Cl)cc2)c(C#N)c(Br)c1C(F)(F)F"
class_label = "active"

[[record]]
compound = "CCC[CH2][Sn]([Cl])([Cl])[CH2]CCC"
class_label = "inactive"

[[record]]
compound = "O=C(CCl)Nc1ccccc1"
class_label = "inactive"

[[record]]
compound = "O=C(NC(=O)c1c(F)cccc1F)Nc1cc(Cl)c(OC(F)(F)C(F)C(F)(F)F)cc1Cl (stereo not given)"
class_label = "active"

[[record]]
compound = "CNC(=O)O/N=C/C(C)(C)S(C)(=O)=O"
class_label = "inactive"

[[record]]
compound = "CC(=Cc1ccccc1)[N+](=O)[O-]"
class_label = "inactive"

[[record]]
compound = "O=CCCl"
class_label = "inactive"

[[record]]
compound = "CCCSP(=S)(OCC)Oc1ccc(SC)cc1 (stereo not given)"
class_label = "active"


###

# Read-out: E-selectin (Homo sapiens) (UniProt P16581)
# Sequence (P16581 whole entry, looked up): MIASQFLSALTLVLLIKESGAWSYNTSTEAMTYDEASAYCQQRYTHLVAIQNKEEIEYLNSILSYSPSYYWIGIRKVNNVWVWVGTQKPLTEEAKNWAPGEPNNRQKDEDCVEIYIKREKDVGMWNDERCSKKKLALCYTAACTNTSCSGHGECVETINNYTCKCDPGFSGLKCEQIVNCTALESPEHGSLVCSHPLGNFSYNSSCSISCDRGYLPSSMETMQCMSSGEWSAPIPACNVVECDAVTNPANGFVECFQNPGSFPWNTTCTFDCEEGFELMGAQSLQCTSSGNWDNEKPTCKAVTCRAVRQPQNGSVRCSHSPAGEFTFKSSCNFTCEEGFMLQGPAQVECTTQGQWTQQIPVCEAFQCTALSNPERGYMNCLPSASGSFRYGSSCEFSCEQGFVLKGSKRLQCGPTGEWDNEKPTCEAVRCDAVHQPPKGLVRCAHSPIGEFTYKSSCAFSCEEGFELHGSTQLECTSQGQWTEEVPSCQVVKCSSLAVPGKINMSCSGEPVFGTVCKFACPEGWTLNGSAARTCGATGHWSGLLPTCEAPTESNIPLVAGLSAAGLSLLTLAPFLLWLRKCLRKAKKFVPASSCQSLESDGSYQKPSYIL
# experimental_details: BSK_LPS_Eselectin: BioMAP Diversity Plus: LPS Assay for Eselectin Biomarker Activity (AID 2283077)
# measurement_context: primary human HUVEC with PBMC; actives raise or lower the signal
The source made the active and inactive calls. How the source made its calls: active means hit-call score of the fitted dose curve at least 0.9, where 1 is the maximum; inactive means score below 0.9.
Outcome codes: active, inactive

[[record]]
compound = "OCCCCO"
class_label = "inactive"

[[record]]
compound = "Nc1ccc(N)cc1"
class_label = "inactive"

[[record]]
compound = "CCOC(=O)CCN(SN(C)C(=O)Oc1cccc2c1OC(C)(C)C2)C(C)C"
class_label = "inactive"

[[record]]
compound = "CCOC(=O)C(SP(=S)(OC)OC)c1ccccc1 (configuration not stated)"
class_label = "inactive"

[[record]]
compound = "CCCCN(CCCC)C(=S)[S-].CCCCN(CCCC)C(=S)[S-].[Ni+2]"
class_label = "inactive"

[[record]]
compound = "CCOC(=O)CC(=O)CCl"
class_label = "inactive"

[[record]]
compound = "Cc1cccc(OP(=O)(Oc2cccc(C)c2)Oc2cccc(C)c2)c1"
class_label = "inactive"

[[record]]
compound = "CC(C)N(C(=O)CCl)c1ccccc1"
class_label = "active"

[[record]]
compound = "CC(C)(C)c1ccccc1O"
class_label = "inactive"

[[record]]
compound = "CC(C=O)Cc1ccc2c(c1)OCO2 (configuration not stated)"
class_label = "inactive"

[[record]]
compound = "O=C(CCl)NCO"
class_label = "inactive"

[[record]]
compound = "O=[N+]([O-])c1cccc2ccccc12"
class_label = "inactive"


###

# tested_system: Estrogen receptor beta (Homo sapiens)
# experimental_details: OT_ER_ERbERb_0480: Odyssey Thera (OT) 8-hour HEK293T Protein-Complementation Assay for Estrogen Receptor-beta/-beta Homodimer (AID 2283357);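 note: active means signal gain over DMSO baseline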
Records with an inconclusive call do not appear. Calls of active or inactive are those of the source. How the source made its calls: active means hit-call score of the fitted dose curve at least 0.9, where 1 is the maximum; inconclusive means response in the unintended direction; inactive means score below 0.9.
readout_label: AC50

[[record]]
molecule = "C=CC(Cl)CCl (centres undefined)"
readout_label = "AC50"
readout_value = "inactive"

[[record]]
molecule = "CCC[CH2][Sn]([Cl])([Cl])[CH2]CCC"
readout_label = "AC50"
readout_value = "inactive"

[[record]]
molecule = "O=CCCl"
readout_label = "AC50"
readout_value = "inactive"

[[record]]
molecule = "CCOP(=S)(OCC)O/N=C(\\C#N)c1ccccc1"
readout_label = "AC50"
readout_value = "26.9 µM (active)"

[[record]]
molecule = "CC(O)(CS(=O)(=O)c1ccc(F)cc1)C(=O)Nc1ccc(C#N)c(C(F)(F)F)c1 (centres undefined)"
readout_label = "AC50"
readout_value = "inactive"

[[record]]
molecule = "CCCCCCCCCCCCN(C)C"
readout_label = "AC50"
readout_value = "76.5 µM (active)"

[[record]]
molecule = "CC(=Cc1ccccc1)[N+](=O)[O-]"
readout_label = "AC50"
readout_value = "inactive"

[[record]]
molecule = "Nc1ccc(N)cc1"
readout_label = "AC50"
readout_value = "inactive"

[[record]]
molecule = "CCC[CH2][Sn]([CH2]CCC)([CH2]CCC)[CH2]CCC"
readout_label = "AC50"
readout_value = "inactive"


###

# Read-out: Collagen IV, COL4A1 (gene 1282)
# experimental_details: BSK_MyoF_CollagenIV: BioMAP Diversity Plus: MyoF Assay for Collagen IV Biomarker Activity (AID 2284247)
# measurement_context: primary human lung fibroblasts
Activity calls are given as the source filed them. How the source made its calls: active means hit-call score of the fitted dose curve at least 0.9, where 1 is the maximum; inactive means score below 0.9.
Classes used: 1.0 = active, 0.0 = inactive

[[record]]
compound = "c1ccc(-c2cccc(-c3ccccc3)c2)cc1"
class_label = 0.0

[[record]]
compound = "Cc1c([N+](=O)[O-])c(C)c([N+](=O)[O-])c(C(C)(C)C)c1[N+](=O)[O-]"
class_label = 0.0

[[record]]
compound = "C=CC(Cl)CCl (stereo unspecified)"
class_label = 1.0

[[record]]
compound = "O=[N+]([O-])c1cccc2ccccc12"
class_label = 0.0

[[record]]
compound = "Oc1c(Br)cc(Br)cc1Br"
class_label = 1.0

[[record]]
compound = "c1ccc2sc(SNC3CCCCC3)nc2c1"
class_label = 0.0

[[record]]
compound = "O=C(CCl)NCO"
class_label = 0.0

[[record]]
compound = "CCOP(=O)(OCC)OC(=CCl)c1ccc(Cl)cc1Cl"
class_label = 0.0

[[record]]
compound = "O=S(=O)(c1ccc(Cl)cc1)c1cc(Cl)c(Cl)cc1Cl"
class_label = 0.0

[[record]]
compound = "Oc1cccc(-c2ccccc2)c1"
class_label = 0.0

[[record]]
compound = "O=C1C=CC(=O)c2ccccc21"
class_label = 1.0


###

# Read-out: Monocyte Chemoattractant Protein-1 (MCP1), CCL2 (gene 6347)
# experimental_details: BSK_CASM3C_MCP1: BioMAP Diversity Plus: CASM3C Assay for Monocyte Chemoattractant Protein-1 (MCP1) Biomarker Activity (AID 2283046);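 note: MCP-1 level quantified by ELISA 24 h after dosing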
# measurement_context: primary human coronary artery smooth muscle cells; actives raise or lower the signal
Activity calls are given as the source filed them. Rule for the calls: active = hit-call score of the fitted dose curve at least 0.9, where 1 is the maximum; inactive = score below 0.9.
Outcome codes: 1.0 (active), 0.0 (inactive)

[[record]]
compound = "CCC(C)(C#N)N=NC(C)(C#N)CC (configuration not stated)"
class_label = 0.0

[[record]]
compound = "CCOC(=O)C(SP(=S)(OC)OC)c1ccccc1 (configuration not stated)"
class_label = 0.0

[[record]]
compound = "C=CC(Cl)CCl (configuration not stated)"
class_label = 1.0

[[record]]
compound = "c1ccc2sc(SNC3CCCCC3)nc2c1"
class_label = 0.0

[[record]]
compound = "Clc1cccc(Cl)c1Cl"
class_label = 0.0

[[record]]
compound = "N#Cc1cccnc1"
class_label = 0.0

[[record]]
compound = "Cc1c([N+](=O)[O-])c(C)c([N+](=O)[O-])c(C(C)(C)C)c1[N+](=O)[O-]"
class_label = 0.0


###

# experimental_details: ATG_GATA_CIS: Attagene CIS-FACTORIAL HepG2 Assay for human GATA Binding Protein (AID 2282944)
# measurement_context: HepG2 GATA cis-element reporter, Attagene multiplex mRNA; actives raise or lower the signal
Active and inactive are the calls of the source. How the source made its calls: active means hit-call score of the fitted dose curve at least 0.9, where 1 is the maximum; inactive means score below 0.9.
Classes used: active, inactive

[[record]]
molecule = "CCCCN(CCCC)C(=S)S"
class_label = "inactive"

[[record]]
molecule = "CC(C)(C)c1cc([N+](=O)[O-])cc(C(C)(C)C)c1O"
class_label = "inactive"

[[record]]
molecule = "C=CC(=O)[O][Sn]([CH2]CCC)([CH2]CCC)[CH2]CCC"
class_label = "active"

[[record]]
molecule = "CCCCS(=O)(=O)Cl"
class_label = "inactive"

[[record]]
molecule = "C[CH2][Hg][S]c1ccccc1C(=O)O"
class_label = "active"

[[record]]
molecule = "CCC(C)(C#N)N=NC(C)(C#N)CC (centres undefined)"
class_label = "inactive"

[[record]]
molecule = "Cc1cc(Cl)ccc1OC(C)C(=O)O (centres undefined)"
class_label = "inactive"

[[record]]
molecule = "CS(=O)(=O)c1ccc(C(=O)C2C(=O)CCCC2=O)c(Cl)c1COCC(F)(F)F"
class_label = "inactive"

[[record]]
molecule = "CCN(N=O)C(N)=O"
class_label = "inactive"

[[record]]
molecule = "O=C(CBr)c1ccc(O)cc1"
class_label = "inactive"

[[record]]
molecule = "COP(=S)(OC)Oc1cc(Cl)c(I)cc1Cl"
class_label = "active"

[[record]]
molecule = "CCCCCCCCBr"
class_label = "inactive"

[[record]]
molecule = "Nc1c(Oc2ccccc2)cc(O)c2c1C(=O)c1ccccc1C2=O"
class_label = "inactive"

[[record]]
molecule = "O=c1[nH]c(=O)n(Cl)c(=O)n1Cl"
class_label = "inactive"

[[record]]
molecule = "CN(N=O)C(N)=O"
class_label = "inactive"

[[record]]
molecule = "O=[N+]([O-])c1ccccc1O"
class_label = "inactive"

[[record]]
molecule = "N#Cc1ccccc1Cl"
class_label = "inactive"

[[record]]
molecule = "CN(C)[C@@H]1C(=O)C(C(N)=O)=C(O)[C@@]2(O)C(=O)C3=C(O)c4c(O)ccc(Cl)c4[C@@](C)(O)[C@H]3C[C@@H]12"
class_label = "inactive"

[[record]]
molecule = "CN(CCCC(O)c1cccnc1)N=O (centres undefined)"
class_label = "inactive"

[[record]]
molecule = "CCCCN(CCCCO)N=O"
class_label = "inactive"

[[record]]
molecule = "Brc1ccc(Oc2c(Br)cc(Br)cc2Br)c(Br)c1"
class_label = "inactive"

[[record]]
molecule = "CN(C)CCN(C)C"
class_label = "inactive"

[[record]]
molecule = "Oc1c(Br)cc(Br)cc1Br"
class_label = "inactive"

[[record]]
molecule = "CCOC(=O)CCN(SN(C)C(=O)Oc1cccc2c1OC(C)(C)C2)C(C)C"
class_label = "inactive"

[[record]]
molecule = "O=C1C[C@@H]2OCC=C3CN4CC[C@]56c7ccccc7N1[C@H]5[C@H]2[C@H]3C[C@H]46"
class_label = "inactive"

[[record]]
molecule = "Cc1cc(Cl)ccc1N"
class_label = "inactive"

[[record]]
molecule = "O=NN1CCOCC1"
class_label = "inactive"

[[record]]
molecule = "CCCCOC(=O)COC(=O)c1ccccc1C(=O)OCCCC"
class_label = "inactive"

[[record]]
molecule = "CC1(C)COP(Oc2ccccc2)OC1"
class_label = "inactive"


Source listed as PubChem BioAssay (EPA / NIEHS).
